measured target: full-length mouse CNPase (Mus musculus, UniProt P16330)
Sequence (P16330 whole entry): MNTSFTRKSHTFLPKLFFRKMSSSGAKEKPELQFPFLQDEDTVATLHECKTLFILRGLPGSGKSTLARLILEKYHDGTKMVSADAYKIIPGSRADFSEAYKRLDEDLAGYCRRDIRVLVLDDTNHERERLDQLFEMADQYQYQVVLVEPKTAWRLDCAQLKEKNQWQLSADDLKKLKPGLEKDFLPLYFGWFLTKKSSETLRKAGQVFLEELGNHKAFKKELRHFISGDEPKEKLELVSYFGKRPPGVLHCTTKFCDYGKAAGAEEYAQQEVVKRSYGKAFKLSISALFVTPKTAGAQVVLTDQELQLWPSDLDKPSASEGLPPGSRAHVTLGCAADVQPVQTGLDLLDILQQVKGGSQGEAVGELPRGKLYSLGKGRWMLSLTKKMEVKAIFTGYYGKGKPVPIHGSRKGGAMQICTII
test method notes: DSF thermal shift
Each record here notes measured ΔTm of CNPase.
measure name: ΔTm of CNPase

anti-CNPase nanobody NbCNP 8D (VHH) VHH: EVQLEESGGGLVQPGGSLRLSCAASGFTFSSYVMSWVRQAPGKGLEWVSDINSGGSRTYYTDSVKGRFTISRDNAKNTLYLQMNSLKPEDTAVYYCARDSLLSTRYLHTSERGQGTQVTVSS | 18 °C
anti-CNPase nanobody NbCNP 7E (VHH) VHH: EVQLEESGGGWVHPGGSLRLSCAASGNVFGVNTMAWYRQAPGKQREQRELVASITDYGTTEYADSVKGRFTISGDNAKATVYLQMNSLKPEDTAVYYCNMDLTVMTATSSLYAYDYWGQGTQVTVSS | 2.1 °C
anti-CNPase nanobody NbCNP 8C (VHH) VHH: EVQLEESGGGLVQAGGSLTLSCAASGFTFDDYAMGWYRQAPGKERVGVSCISRTDGYTYYLDSVKGRFTISTDHAKHTVYLQMNNLKPDDTGLYYCAADADPEYGSRCPDPYYGMDYWGKGILVTVSS | 9.2 °C
anti-CNPase nanobody NbCNP 10E (VHH) VHH: EVQLEESGGGLVQPGGSLRLSCAVSGITLDDFGIGWFRQAPGKEREGVACISPGYEHIYYADSAKGRFTISRDNAKNTVYLQMNNLKPWDTGVYYCAADNDLPDRLWGGSDWSDPSPYDYWGQGTQVTVSS | 4.2 °C
